Assay: Inhibition of P-gp in human K562 cells assessed as adriamycin IC50 at 2 ug/ml
pIC50: −log10 of the molar value.
Listed below: pIC50 values for each entry.

SMILES_TEXT	pIC50
Cc1ccc2[nH]c(=O)c(C)nc2c1	6.10
Cc1nc2cc(F)ccc2[nH]c1=O	6.11

----------
Assay: Inhibition of P-gp in human K562/A02 cells assessed as adriamycin IC50 at 8 ug/ml

SMILES_TEXT	IC50, µM
Cc1nc2cc(F)ccc2[nH]c1=O	5.78
Cc1ccc2[nH]c(=O)c(C)nc2c1	8.95

----------
Listed below: IC50 values for each entry.
Test: Inhibition of P-gp in human K562 cells assessed as adriamycin IC50 at 8 ug/ml

SMILES_TEXT	IC50 [nM]
Cc1ccc2[nH]c(=O)c(C)nc2c1	746
Cc1nc2cc(F)ccc2[nH]c1=O	729
